assayed_system: CMD1 (UniProt A0A2K3D5Z7 1-532)
Sequence (A0A2K3D5Z7 whole entry): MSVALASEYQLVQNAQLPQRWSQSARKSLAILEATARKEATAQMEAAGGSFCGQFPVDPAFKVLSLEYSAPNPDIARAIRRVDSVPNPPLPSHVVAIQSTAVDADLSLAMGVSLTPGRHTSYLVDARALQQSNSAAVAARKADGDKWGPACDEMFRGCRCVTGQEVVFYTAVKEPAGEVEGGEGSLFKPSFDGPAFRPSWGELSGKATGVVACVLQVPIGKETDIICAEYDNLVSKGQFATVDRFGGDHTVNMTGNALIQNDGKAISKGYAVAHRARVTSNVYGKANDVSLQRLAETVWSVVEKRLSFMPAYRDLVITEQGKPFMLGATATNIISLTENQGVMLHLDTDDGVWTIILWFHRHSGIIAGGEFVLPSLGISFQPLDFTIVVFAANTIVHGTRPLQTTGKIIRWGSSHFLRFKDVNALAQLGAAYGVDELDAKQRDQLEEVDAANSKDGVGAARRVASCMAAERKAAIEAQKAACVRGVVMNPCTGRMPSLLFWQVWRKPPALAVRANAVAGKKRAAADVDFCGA
experiment_description: BLI; BLI: 20 mM Tris-HCl pH 8.0, 50 mM NaCl, 0.1% Tween-20, 0.5% BSA, 25 C; biotin-DNA on streptavidin sensors, 1:1 fit
assay_setup: protein: recombinant; tags: His6-SUMO, cleaved with ULP1; label: 5'-biotin; 10 bp palindromic duplex, 3' overhang 4 nt on both strands
measure_name: pKd
The meaning of pKd here: minus log10 of the concentration in molar units.

# binder 14-nt 5mC-DNA (BLI) (dsDNA, 5mC at position 3 of both strands) DNA 1: CCCGCGCGGGATGT DNA 2: CCCGCGCGGGATGT ; its pKd = 5.70
